Cited source for all entries: ChEMBL document CHEMBL1141215

system: Mus musculus; assay: Median survival time in mouse at 14 mg/kg/day, ip; assay type: functional, CD1; settings: route intraperitoneal
# maps each entry to its MST
Write the answer as a number in days, unit excluded.

Solved entries (count: 2):
{"compound": "CCCCC1Oc2ccc(C(O)Cn3ccnc3)cc2N(C)C1=O (stereo not given)", "subject of test": "Mus musculus", "unit text": "days", "MST": 14}
{"compound": "CCCCOC1Sc2ccc(C(O)Cn3ccnc3)cc2N(C)C1=O (stereo not given)", "subject of test": "Mus musculus", "unit text": "days", "MST": 14}

For the compound CCCCC1Sc2ccc(C(O)Cn3ccnc3)cc2N(C)C1=O (stereo not given) , give its measured MST value.
14

For the compound CCCCOC1Oc2ccc(C(O)Cn3ccnc3)cc2N(C)C1=O (stereo not given) , give its measured MST value.
12

###

system: Mus musculus; assay: Survival of mouse administered at 14 mg/kg/day, ip; format: functional, CD1; conditions: route intraperitoneal
endpoint label: Survival (days)
Write the answer as a number in days, unit excluded.

Solved entries (count: 3):
{"molecule": "OC(Cn1cncn1)(Cn1cncn1)c1ccc(F)cc1F", "Survival (days)": 23}
{"molecule": "CCCCOC1Oc2ccc(C(O)Cn3ccnc3)cc2N(C)C1=O (stereo not given)", "Survival (days)": 4}
{"molecule": "CCCCOC1Sc2ccc(C(O)Cn3ccnc3)cc2N(C)C1=O (stereo not given)", "Survival (days)": 9}

For the molecule CCCCC1Oc2ccc(C(O)Cn3ccnc3)cc2N(C)C1=O (stereo not given) , give its measured Survival value.
9

For the molecule CCCCC1Sc2ccc(C(O)Cn3ccnc3)cc2N(C)C1=O (stereo not given) , give its measured Survival value.
9
